Reference for the values: patent US12617779B2

Experiment: Evaluation of conversion rate to active form in buffer solution (Experimental Example 1)
Format: physicochemical
Conditions: pH5.5, 3 hr
observation-type: Residual rate (%)
Give the number; % is assumed, so skip it.

Quick check: Residual rate of CN1CC[C@H](c2c(OC(=O)N(C)CCN)cc(O)c3c(=O)cc(-c4ccccc4Cl)oc23)[C@H](O)C1 [Comparative Example 13, reference compound] ?
64.7

Name the recorded Residual rate for CCNC(=O)O[C@@H]1CN(C)CC[C@@H]1c1c(O)cc(O)c2c(=O)cc(-c3ccccc3Cl)oc12 [Comparative Example 4, reference compound] .
97.6

Please look up its Residual rate: CC(C)[C@H](N)C(=O)O[C@@H]1CN(C)CC[C@@H]1c1c(O)cc(O)c2c(=O)cc(-c3ccccc3Cl)oc12 [Comparative Example 10, reference compound]
88.7

// lookup Residual rate for CNCCN(C)C(=O)Oc1cc(O)c2c(=O)cc(-c3ccccc3Cl)oc2c1[C@H]1CCN(C)C[C@H]1O [Comparative Example 14, reference compound]
2.9
